Values were extracted from ChEMBL document CHEMBL3431459.

Parameter 'readout' = IC50; parameter 'system' = Carnitine O-palmitoyltransferase 2, mitochondrial (Rattus norvegicus).
PROPERTY MEASURED: IC50 (µM)

>>> result_value("O=C1CCC(=O)N1c1cccc(-c2n[nH]c([C@H]3CCCCN3C(=O)COc3ccccc3)n2)c1")
63.5
>>> result_value("NC(=O)c1ccc(-c2csc([C@H]3CCCCN3C(=O)COc3ccccc3)n2)cc1")
75.2
>>> result_value("O=C1Cc2cc(-c3noc([C@H]4CCCCN4C(=O)COc4ccccc4)n3)ccc2N1")
53.5
>>> result_value("O=C(COc1ccccc1)N1CCCC[C@@H]1c1csc(-c2n[nH]c3ccccc23)n1")
56.4

----------
Assay: SUPPLEMENTARY: Lipophilicity (log D) Determination by high-throughput shake-flask
Format: physicochemical
Settings: octanol/water
PROPERTY MEASURED: logD

Below, 4 molecules whose answers are already recorded.
>>> result_value("CC(=O)NCc1cccc(-c2n[nH]c([C@H]3CCCCN3C(=O)COc3ccccc3)n2)c1")
2.17
>>> result_value("Nc1cc(-c2nc([C@H]3CCCCN3C(=O)COc3ccccc3)no2)ccn1")
2.47
>>> result_value("O=C(COc1ccccc1)N1CCCC[C@@H]1c1noc(-c2cc(Cl)nnc2O)n1")
1.84
>>> result_value("O=C1COc2ccc(-c3noc([C@H]4CCCCN4C(=O)COc4ccccc4)n3)cc2N1")
3.04

A = COc1ccc(Cl)cc1S(=O)(=O)c1c2cc(C(=O)Nc3ccc(C(=O)O)cc3)ccc2nn1C
B = COc1ccc(Cl)cc1S(=O)(=O)N1CCOc2c(F)cc(C(=O)Nc3ccc(C(=O)O)c(Cl)c3)cc21
C = NNC(=O)c1cccc(-c2n[nH]c([C@H]3CCCCN3C(=O)COc3ccccc3)n2)c1
D = COc1ccc(C)cc1S(=O)(=O)n1ccc2ccc(C(=O)Nc3ccc(CC(=O)O)cc3)cc21
E = O=C(O)c1ccc(NC(=O)c2ccc3c(c2)N(S(=O)(=O)c2cccc(Cl)c2)CCS3(=O)=O)cc1
List items by logD in falling order. Give your ranking as a list of the labels in the requested order.
A, C, D, B, E

----------
Biological target: Carnitine O-palmitoyltransferase 2, mitochondrial (Rattus norvegicus, UniProt P18886)
Sequence (P18886 whole entry): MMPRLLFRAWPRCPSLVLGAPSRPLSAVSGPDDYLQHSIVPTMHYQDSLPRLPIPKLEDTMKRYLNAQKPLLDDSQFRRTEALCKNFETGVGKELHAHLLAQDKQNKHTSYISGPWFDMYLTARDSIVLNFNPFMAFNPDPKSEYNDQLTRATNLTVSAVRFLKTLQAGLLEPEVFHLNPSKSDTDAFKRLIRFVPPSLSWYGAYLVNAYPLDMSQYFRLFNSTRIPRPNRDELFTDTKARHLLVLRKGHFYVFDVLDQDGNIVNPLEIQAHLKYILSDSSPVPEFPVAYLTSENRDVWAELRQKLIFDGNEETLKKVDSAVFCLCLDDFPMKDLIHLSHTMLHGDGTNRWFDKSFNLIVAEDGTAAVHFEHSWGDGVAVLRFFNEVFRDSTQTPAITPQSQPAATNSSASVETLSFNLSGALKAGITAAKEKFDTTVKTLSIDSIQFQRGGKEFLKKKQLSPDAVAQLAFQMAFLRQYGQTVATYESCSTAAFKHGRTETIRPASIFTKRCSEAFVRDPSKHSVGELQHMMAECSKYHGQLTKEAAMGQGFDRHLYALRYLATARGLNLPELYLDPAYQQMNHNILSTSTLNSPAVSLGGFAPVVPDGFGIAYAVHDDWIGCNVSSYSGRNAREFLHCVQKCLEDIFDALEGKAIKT
pIC50: −log10 of the molar value.
PROPERTY MEASURED: pIC50

Below, 3 compounds whose answers are already recorded.
>>> result_value("NC(=O)c1cn2ccc(-c3noc([C@H]4CCCCN4C(=O)COc4ccccc4)n3)cc2n1")
4.74
>>> result_value("CC(=O)Nc1ccc(-n2nnc([C@H]3CCCCN3C(=O)COc3ccccc3)n2)cc1")
4.11
>>> result_value("COc1ccc(Cl)cc1S(=O)(=O)N1CCc2ccc(C(=O)Nc3ccc(C(=O)O)c(F)c3)cc21")
5.31

1 = CCN(CC)C(=O)c1ccc(-c2noc([C@H]3CCCCN3C(=O)COc3ccccc3)n2)cc1
2 = COc1ccc(Cl)cc1S(=O)(=O)N1CC(C)c2ccc(C(=O)Nc3ccc(C(=O)O)c(Cl)c3)cc21 (centres undefined)
Of the two listed items, which has the higher pIC50? First: 1 Second: 2 Give the chosen item's label as your response.
2

----------
pIC50: −log10 of the molar value.
Parameter 'readout' = pIC50; parameter 'system' = Carnitine O-palmitoyltransferase 2, mitochondrial (Homo sapiens, UniProt P23786).
Sequence (P23786 whole entry): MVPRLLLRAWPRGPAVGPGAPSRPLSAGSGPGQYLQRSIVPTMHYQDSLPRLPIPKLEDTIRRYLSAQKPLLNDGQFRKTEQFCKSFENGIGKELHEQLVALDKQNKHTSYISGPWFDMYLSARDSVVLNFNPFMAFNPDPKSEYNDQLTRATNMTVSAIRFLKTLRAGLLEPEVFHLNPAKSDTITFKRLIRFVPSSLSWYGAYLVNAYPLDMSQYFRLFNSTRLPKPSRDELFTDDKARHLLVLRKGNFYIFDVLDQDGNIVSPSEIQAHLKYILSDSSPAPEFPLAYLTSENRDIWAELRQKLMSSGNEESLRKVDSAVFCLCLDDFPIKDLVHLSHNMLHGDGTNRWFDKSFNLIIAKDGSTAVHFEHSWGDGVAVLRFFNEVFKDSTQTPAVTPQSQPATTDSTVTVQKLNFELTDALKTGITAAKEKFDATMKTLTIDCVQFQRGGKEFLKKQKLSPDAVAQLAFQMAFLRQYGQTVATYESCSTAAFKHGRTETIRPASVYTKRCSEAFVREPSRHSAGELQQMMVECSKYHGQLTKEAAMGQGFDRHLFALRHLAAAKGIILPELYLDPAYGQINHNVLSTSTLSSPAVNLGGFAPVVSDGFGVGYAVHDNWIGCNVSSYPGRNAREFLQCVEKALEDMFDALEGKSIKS
PROPERTY MEASURED: pIC50

>>> result_value("COc1ccc(Cl)cc1S(=O)(=O)N1CCc2c(C)cc(C(=O)Nc3ccc(C(=O)O)cc3)cc21")
6.49

1 = O=C(O)c1ccc(-c2nc([C@H]3CCCCN3C(=O)COc3ccccc3)cs2)cc1
2 = COc1ccc(Cl)cc1S(=O)(=O)N1COc2c(C)cc(C(=O)Nc3ccc(C(=O)O)cc3)cc21
3 = O=C(COc1ccccc1)N1CCCC[C@@H]1c1nc(-c2ccc(=O)[nH]c2)no1
4 = Cc1ccc(-c2nc([C@H]3CCCCN3C(=O)COc3ccccc3)cs2)cn1
Put the compounds in ascending order of pIC50. Give your ranking as a list of the labels in the requested order.
3, 4, 1, 2
(3: 4.01, 4: 4.61, 1: 5.29, 2: 6.51)
